These data points were gathered from patent US10144742B2.

Biological target: UniProt P43490
Test: NAMPT enzyme assay (TR-FRET/HTRF, BodiPY ligand, anti 6His-Tb)
Type: binding
Conditions: NAMPT inhibition, IC50 range class; read-out: IC50
Description: As discussed above, the invention provides compounds that are useful as inhibitors of the enzyme NAMPT. The NAMPT inhibition of a compound of the invention can be measured using a variety of methods known in the art. […] The TR-FRET signal can be measured using a high throughput microplate reader (e.g., Pherastar). […] The percent inhibition value at a single concentration of compound of the invention can be calculated relative to a control treated sample. […]
Property Measured: IC50

Use the examples below as a reference point.
Asked: What value of IC50 has been reported for the following molecule? `CN(C)CCOc1nc2ccc(C(=O)NCCCc3ncc[nH]3)cc2nc1-c1ccc(F)cc1`
Given back: < 0.1 µM

Asked: Okay, and `O=C(NCCCc1ncc[nH]1)c1ccc2nc(-c3ccc(F)cc3)c(-c3cn[nH]c3)nc2c1` ?
Given back: 0.1 to 0.5 µM

Asked: Okay, and `COc1cccc(-c2nc3cc(C(=O)NCCCc4ncc[nH]4)ccc3nc2OC(C)C)c1` ?
Given back: < 0.1 µM

Turning now to a further record.
Asked: What value of IC50 has been reported for the following molecule? `C[C@@H]1CN(c2nc3ccc(C(=O)NCCCc4ccc(N)nc4)cc3nc2-c2ccc(F)cc2)C[C@H](C)O1`
Given back: < 0.1 µM

###

molecular target: UniProt:P43490; test: NAMPT enzyme assay (TR-FRET/HTRF, BodiPY ligand, anti 6His-Tb); type: binding; conditions: NAMPT IC50 range class; read-out: IC50
Property Measured: IC50

Use the examples below as a reference point.
Asked: What value of IC50 has been reported for the following compound? `CC(C)Oc1nc2ccc(C(=O)NCCCc3ncc[nH]3)cc2nc1-c1ccc(F)cc1`
Given back: < 100 nM

Asked: Okay, and `O=C(NCCc1ccncc1)c1ccc2nc(-c3ccc(F)cc3)c(-c3ccc(F)cc3)nc2c1` ?
Given back: < 100 nM

Asked: Okay, and `CC(=O)Nc1ccccc1-c1nc2ccc(C(=O)NCCCn3ccnc3)cc2nc1-c1ccccc1` ?
Given back: 1000 to 2000 nM

Asked: Okay, and `O=C(NCCc1cccnc1)c1ccc2nc(-c3ccco3)c(-c3ccco3)nc2c1` ?
Given back: 2000 to 10000 nM

Asked: Okay, and COC1CCN(c2nc3ccc(C(=O)NCCCn4ccnc4)cc3nc2-c2ccccc2)C1 (centres unmarked) ?
Given back: 100 to 500 nM

---
Asked: What value of IC50 has been reported for the following compound? O=C(NCCCc1ncc[nH]1)c1ccc2nc(OCC3CCOC3)c(-c3ccc(F)cc3)nc2c1 (centres unmarked)
Given back: < 100 nM

Asked: Okay, and `N#Cc1cc(-c2nc3cc(C(=O)NCCCc4ncc[nH]4)ccc3nc2-c2ccc(F)cc2)ccc1F` ?
Given back: 100 to 500 nM

Asked: Okay, and `Cn1cncc1CCNC(=O)c1ccc2nc(N3CCOCC3)c(-c3ccc(F)cc3)nc2c1` ?
Given back: 100 to 500 nM

###

molecular target: UniProt:P43490; assay: NAMPT enzyme assay (TR-FRET/HTRF, BodiPY ligand, anti 6His-Tb); format: binding; conditions: NAMPT inhibition at compound concentration 1 μM; read-out: Percent Inhibition
Property Measured: inhibition at 1 µM (%)
Lab book: enter the figure in %, no units written.

Use the examples below as a reference point.
Asked: What value of inhibition at 1 µM has been reported for the following compound? Cc1nn(C)cc1-c1nc2cc(C(=O)NCCCc3ncc[nH]3)ccc2nc1-c1ccc(F)cc1 [Compound I-475]
Given back: 77

Asked: Okay, and CCOc1ccc(Cl)c(-c2nc3cc(C(=O)NCCCc4ncc[nH]4)ccc3nc2-c2ccc(F)cc2)c1 [Compound I-437] ?
Given back: 71

Asked: Okay, and Cc1ccc(C(F)(F)F)cc1-c1nc2cc(C(=O)NCCCc3ncc[nH]3)ccc2nc1-c1ccc(F)cc1 [Compound I-445] ?
Given back: 91

Asked: Okay, and Cn1ccc(COc2nc3ccc(C(=O)NCCCc4ncc[nH]4)cc3nc2-c2ccc(F)cc2)n1 [Compound I-460] ?
Given back: 99

Asked: Okay, and O=C(NCc1ccc2nccn2c1)c1ccc2nc(-c3ccc(Cl)cc3)c(-c3ccc(Cl)cc3)nc2c1 [Compound I-487] ?
Given back: 70

---
Asked: What value of inhibition at 1 µM has been reported for the following compound? Cc1cc(-c2nc3cc(C(=O)NCCCc4ncc[nH]4)ccc3nc2-c2ccc(F)cc2)c(C)s1 [Compound I-422]
Given back: 92

Asked: Okay, and CN1CCC(COc2nc3ccc(C(=O)NCCCc4ncc[nH]4)cc3nc2-c2ccc(F)cc2)C1 (stereo not drawn) [Compound I-513] ?
Given back: 99

Asked: Okay, and O=C(NCCCc1ncc[nH]1)c1ccc2nc(-c3ccc(F)cc3)c(-c3ccc4nccn4c3)nc2c1 [Compound I-417] ?
Given back: 81

Asked: Okay, and COc1cc(F)cc(-c2nc3cc(C(=O)NCCCc4ncc[nH]4)ccc3nc2-c2ccc(F)cc2)c1 [Compound I-512] ?
Given back: 92

Asked: Okay, and Cc1nccn1-c1nc2ccc(C(=O)NCCCc3ncc[nH]3)cc2nc1-c1ccc(F)cc1 [Compound I-413] ?
Given back: 80

###

target: hNAMPT protein (Homo sapiens (Human)); experiment: NAMPT enzyme assay (TR-FRET/HTRF, BodiPY ligand, anti 6His-Tb); format: binding; conditions: NAMPT IC50 range class; read-out: IC50
Sequence (P43490 whole entry): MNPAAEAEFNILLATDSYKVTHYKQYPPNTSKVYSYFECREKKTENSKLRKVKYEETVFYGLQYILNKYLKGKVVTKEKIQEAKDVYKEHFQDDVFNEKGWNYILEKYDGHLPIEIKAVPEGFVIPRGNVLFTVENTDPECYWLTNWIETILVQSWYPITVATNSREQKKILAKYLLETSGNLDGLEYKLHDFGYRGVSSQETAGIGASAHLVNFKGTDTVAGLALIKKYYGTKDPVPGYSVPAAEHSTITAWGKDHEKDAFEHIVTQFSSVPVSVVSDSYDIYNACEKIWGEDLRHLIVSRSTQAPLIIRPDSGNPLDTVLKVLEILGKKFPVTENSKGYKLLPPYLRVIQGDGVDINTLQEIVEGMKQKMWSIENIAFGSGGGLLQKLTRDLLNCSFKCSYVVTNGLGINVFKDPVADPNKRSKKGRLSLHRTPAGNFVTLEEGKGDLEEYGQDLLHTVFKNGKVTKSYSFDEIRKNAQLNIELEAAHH
Some compounds, each annotated with its measured IC50.

Use the examples below as a reference point.
Asked: What value of IC50 has been reported for the following compound? O=C(NCCCn1ccnc1)c1ccc2nc(Oc3ccccc3)c(-c3ccccc3)nc2c1 [Compound I-80]
Given back: 500 to 1000 nM

Asked: Okay, and Cn1cc(COc2nc3ccc(C(=O)NCCCc4ncc[nH]4)cc3nc2-c2ccc(F)cc2)cn1 [Compound I-332] ?
Given back: < 100 nM

Asked: Okay, and O=C(NCCCc1ncc[nH]1)c1ccc2nc(Oc3ccccc3)c(-c3ccc(Cl)cc3)nc2c1 [Compound I-273] ?
Given back: < 100 nM

---
Asked: What value of IC50 has been reported for the following compound? O=C(NCCCc1ncc[nH]1)c1ccc2nc(-c3ccc(Cl)cc3)c(-c3ccc(Cl)cc3)nc2c1 [Compound I-315]
Given back: 100 to 500 nM

###

target: hNAMPT protein (Homo sapiens (Human)); assay: NAMPT enzyme assay (TR-FRET/HTRF, BodiPY ligand, anti 6His-Tb); format: binding; settings: compound concentration 1 μM; read-out: Percent Inhibition
Property Measured: inhibition at 1 µM (%)
Lab book: enter the figure in %, no units written.

Use the examples below as a reference point.
Asked: What value of inhibition at 1 µM on hNAMPT protein (Homo sapiens (Human)) does CN1CCCCC1COc1nc2ccc(C(=O)NCCCc3ncc[nH]3)cc2nc1-c1ccc(F)cc1 (stereo not shown) have?
Given back: 98

Asked: Okay, and `CCCOc1nc2ccc(C(=O)NCCCc3ncc[nH]3)cc2nc1-c1ccc(F)cc1` ?
Given back: 97

Asked: Okay, and `O=C(NCCCn1ccnc1)c1ccc2nc(-c3ccccn3)c(-c3ccccc3)nc2c1` ?
Given back: 48

Turning now to a further record.
Asked: What value of inhibition at 1 µM on hNAMPT protein (Homo sapiens (Human)) does `O=C(NCCCn1ccnc1)c1ccc2nc(-c3ccccc3)c(-c3ccc4[nH]ccc4c3)nc2c1` have?
Given back: 58

###

Some compounds, each annotated with its measured inhibition at 1 µM.
target: hNAMPT protein (Homo sapiens (Human)); test: NAMPT enzyme assay (TR-FRET/HTRF, BodiPY ligand, anti 6His-Tb); format: binding; details: compound concentration 1 μM; read-out: Percent Inhibition

Use the examples below as a reference point.
Asked: What value of inhibition at 1 µM has been reported for the following compound? `Cn1cc(CCOc2nc3ccc(C(=O)NCCCc4ncc[nH]4)cc3nc2-c2ccc(F)cc2)cn1`
Given back: > 99%

Asked: Okay, and `CC(=O)Nc1ccc(-c2nc3ccc(C(=O)NCCCn4ccnc4)cc3nc2-c2ccccc2)cc1` ?
Given back: 84%

Asked: Okay, and `CCOc1cc(-c2nc3cc(C(=O)NCCCc4ncc[nH]4)ccc3nc2-c2ccc(F)cc2)ccc1F` ?
Given back: > 99%

Turning now to a further record.
Asked: What value of inhibition at 1 µM has been reported for the following compound? `N#Cc1cc(-c2nc3cc(C(=O)NCCCc4ncc[nH]4)ccc3nc2-c2ccc(F)cc2)ccc1Cl`
Given back: 85%

###

biological target: hNAMPT protein (Homo sapiens (Human)); test: NAMPT enzyme assay (TR-FRET/HTRF, BodiPY ligand, anti 6His-Tb); format: binding; conditions: compound concentration 1 μM; read-out: Percent Inhibition
Property Measured: inhibition at 1 µM (%)
Lab book: enter the figure in %, no units written.

Use the examples below as a reference point.
Asked: What value of inhibition at 1 µM has been reported for the following molecule? `O=C(NCCCc1ncc[nH]1)c1ccc2nc(-c3ccc(F)cc3)c(-c3ccc(Cl)c(C(F)(F)F)c3)nc2c1`
Given back: 93

Asked: Okay, and `O=C(NCCCn1ccnc1)c1ccc2nc(N3CCS(=O)(=O)CC3)c(-c3ccccc3)nc2c1` ?
Given back: 45

Asked: Okay, and `O=C(NCCCn1ccnc1)c1ccc2nc(-c3ccc4[nH]ccc4c3)c(-c3ccccc3)nc2c1` ?
Given back: 86

---
Asked: What value of inhibition at 1 µM has been reported for the following molecule? `O=C(NCCCn1ccnc1)c1ccc2nc(-c3ccco3)c(-c3ccco3)nc2c1`
Given back: 47

Asked: Okay, and `O=C(CCCn1ccnc1)Nc1ccc2nc(-c3ccc(F)cc3)c(-c3ccc(F)cc3)nc2c1` ?
Given back: 46
